Parameter: EC50. Scope: all listed entries.
Molecular target: T1, cyno TfR extracellular domain (analogous construct to human TfR ecd) (cynomolgus monkey, UniProt Q5RDH6 87-760 (Pongo abelii entry))
T1 construct: also called cynoTfR ecd
T1 chain: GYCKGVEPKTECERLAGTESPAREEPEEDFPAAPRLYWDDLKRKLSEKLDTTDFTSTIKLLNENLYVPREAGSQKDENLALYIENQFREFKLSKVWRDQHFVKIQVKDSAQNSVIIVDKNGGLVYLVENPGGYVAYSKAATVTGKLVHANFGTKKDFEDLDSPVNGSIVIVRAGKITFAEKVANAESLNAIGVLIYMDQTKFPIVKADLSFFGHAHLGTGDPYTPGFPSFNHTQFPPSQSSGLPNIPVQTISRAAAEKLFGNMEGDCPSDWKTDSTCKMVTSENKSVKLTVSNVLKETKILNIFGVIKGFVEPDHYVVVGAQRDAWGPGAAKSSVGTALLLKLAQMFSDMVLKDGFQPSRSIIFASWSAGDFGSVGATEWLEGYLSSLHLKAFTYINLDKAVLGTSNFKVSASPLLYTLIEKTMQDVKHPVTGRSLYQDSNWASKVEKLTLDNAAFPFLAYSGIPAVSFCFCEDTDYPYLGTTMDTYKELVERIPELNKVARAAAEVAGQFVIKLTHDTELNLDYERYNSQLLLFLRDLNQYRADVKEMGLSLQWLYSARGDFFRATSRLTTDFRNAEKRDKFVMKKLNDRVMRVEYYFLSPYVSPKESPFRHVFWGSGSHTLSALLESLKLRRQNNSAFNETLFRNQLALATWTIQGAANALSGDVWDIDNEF
Experiment: ELISA, TfR-coated plate, IgG in culture supernatant;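 note: human or cynomolgus TfR coated at 2 µg/mL, supernatant IgG titrated in 1:5 steps for 1 h, bound antibody read with HRP anti-human Fcγ and TMB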
Enter your answer as a number in µg/mL; do not include the unit.

hu15G11.v5 IgG Ala variant E50A (HVR-H2) (antibody, name in Kabat numbering, V domains shown, IgG in cell culture supernatant) VH: EVQLVQSGAEVKKPGASVKVSCKASGYTFTSYWMHWVRQAPGQRLEWIGAINPTNGRTNYIEKFKSRATLTVDKSASTAYMELSSLRSEDTAVYYCARGTRAYHYWGQGTMVTVSS VL: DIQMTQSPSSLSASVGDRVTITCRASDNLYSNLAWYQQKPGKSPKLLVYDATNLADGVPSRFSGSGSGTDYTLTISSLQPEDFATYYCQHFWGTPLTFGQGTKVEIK
0.41

Problem: // returns reported EC50 for input hu15G11.v5 IgG Ala variant D50A (HVR-L2) (antibody, V domains shown, IgG in cell culture supernatant) VH: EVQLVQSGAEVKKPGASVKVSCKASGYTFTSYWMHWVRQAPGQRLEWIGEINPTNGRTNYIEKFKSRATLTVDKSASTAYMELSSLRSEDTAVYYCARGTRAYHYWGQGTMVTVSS VL: DIQMTQSPSSLSASVGDRVTITCRASDNLYSNLAWYQQKPGKSPKLLVYAATNLADGVPSRFSGSGSGTDYTLTISSLQPEDFATYYCQHFWGTPLTFGQGTKVEIK
Solution: 0.0005

Problem: Can you check hu15G11.v5 IgG Ala variant N58A (HVR-H2) (antibody, name in Kabat numbering, V domains shown, IgG in cell culture supernatant; Kabat numbers after 52a lie one below the linear count) VH: EVQLVQSGAEVKKPGASVKVSCKASGYTFTSYWMHWVRQAPGQRLEWIGEINPTNGRTAYIEKFKSRATLTVDKSASTAYMELSSLRSEDTAVYYCARGTRAYHYWGQGTMVTVSS VL: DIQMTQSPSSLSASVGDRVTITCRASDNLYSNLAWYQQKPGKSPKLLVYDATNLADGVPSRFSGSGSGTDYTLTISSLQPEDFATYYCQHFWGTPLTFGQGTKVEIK next?
Solution: 0.0804
